apparent KD of K4 kissing-loop reporter for assorted sequences
Tested on: K4 kissing-loop RNA reporter
Experiment: apparent KD of K4 kissing-loop reporter; higher = weaker reporter binding
Settings: Eterna round: R107; input ligand: arginine 13.2 mM
A number alone suffices; assume µM.

# input sequence: UGGAUAUAGUGAUGUUAUAUAGAGAUGGAUACCAGCUAAGAGAAUGGCCCUUGGCAGCCGAAAGAAGUAUCAUUAGAGAAGAAUG [ExTheophyl.Ag] ; wanted: its apparent KD of K4 kissing-loop reporter
0.249

Okay, and GAACGGCGGGCGGCCGCCACUGGUAUACGAGUGAUGUUCGGAUAUACAUAAAAUAAGGUAAUUAACAGGACCGGGUCAGAGCCGG [Tryptophan B Same State; Euphoria Solution] ?
0.13

Okay, and UGAUCUCGGCAGUGAUGUUGCAUAUGAGAAGGAGCGCACGAAAGUGCAGGUAGGUCGCUCAGCCACGACGAAAGUCGCGAGAUCU [#SwitchBubble 3 #K4Early] ?
0.259

Continuing:
# input sequence: AAGUCAUAGGCAGGAUAUGCUUAGUAUUAAGGCCAUAUAUACGUAUAGAGUGAUGUUUUGUACCAGGCAGAAGGGCUACAUCCGU [FMN B Excl V5 (+2U)] ; wanted: its apparent KD of K4 kissing-loop reporter
0.562

Okay, and GGGUUUGCCGGAAGGAGCGCACUAUGGAGUGAUGUUCCAUGACCGCACAGCUUGCGGUCAGUGCAGGUAGGUCGCCGGUAGCGUU [Maedzaus] ?
0.203

Okay, and UAGGCGGGAGAAGGAUAUCUGUGAAACCUGCUGCCCAAUAAGUGAUGUUUAUAAAGGAAGCGUCAUAGAGAAGGUCUAACAAGUA [theeternabot_sameState_KL_FMN_B_1] ?
0.582

====

apparent KD of K4 kissing-loop reporter for assorted sequences
Test system: K4 kissing-loop RNA reporter;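 also: bound reporter read as fluorescence of individual clusters on recovered sequencing chips by microscopy, with normalized cluster intensities fitted with a binding model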
Experiment: apparent KD of K4 kissing-loop reporter; higher = weaker reporter binding
Settings: Eterna round: R107; input ligand: none
A number alone suffices; assume nM.

Please review the entries below; each comes with its answer.
# input sequence: GGAGAGGUCUUGUUUGGAUGUGAUUAAUGGCGAGGACCGGUACGGCCGCCACUCGGGUGAUGUUAGUGAUGUUGAUGUAGUGAUG [uyumullin] ; wanted: its apparent KD of K4 kissing-loop reporter
114

Okay, and UGUACCGAGUCAGGAUAUGUCGUCGAAAGACGAAAUGGAGUGAUGUUCCUUAAACUGCGAAAGCAGACAGAAGGGAUUUGGUACU [FmnBS 29 U77] ?
739

Shifting focus to the sequence that follows.
# input sequence: UCCUAGGCUCGAAAGAGCCUAGGAUUUACUCAGGAUAUCCGGAAACGGAGAAGGGAGUGACUAGUGAUGUUAGGGACUCCCUAAA ; wanted: its apparent KD of K4 kissing-loop reporter
95.5

====

Tested on: MS2 coat protein
Test: apparent KD of MS2 coat protein; designed switch direction (-1 OFF switch, 1 ON switch): -1; higher = weaker reporter binding
Settings: input ligand: microRNA oligo, concentration not stated
apparent KD of MS2 coat protein for assorted sequences
A number alone suffices; assume nM.

# input sequence: UAAGAUUACCGAGGAUAUGGUGGUUUCUAUUAACCAGAAGGCGGACUCAACAUGAGGAUCACCCAUGUAUAAAGGGUAUUAGAU [Ex NG1 #8] (Eterna round: R96, puzzle: Exclusion NG 1) ; wanted: its apparent KD of MS2 coat protein
112

Shifting focus to the sequence that follows.
# input sequence: GGAUAAAACUGAGGAUAUACGUAUCACUAACGAGUAGAAGGCAGACAUGAGGAUCACCCAUGUGAGUUCUCAAUAAGAAACACG [Prohibition 65 - Jieux - Exclusion NG 1] (Eterna round: R96, puzzle: Exclusion NG 1) ; wanted: its apparent KD of MS2 coat protein
43.5
